Target: T1, mPD1 (soluble, ELISA of Examples 20 and 24) (mouse, UniProt Q02242 25-167, limits assumed)
T1 construct: also called Biotin-mPD1
T1 sequence (looked up): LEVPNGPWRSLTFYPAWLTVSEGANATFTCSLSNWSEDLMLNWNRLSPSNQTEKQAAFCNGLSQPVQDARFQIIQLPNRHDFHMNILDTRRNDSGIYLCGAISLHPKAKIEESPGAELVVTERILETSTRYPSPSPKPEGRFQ
Assay: ELISA, biotin-mPD1 on streptavidin
EC50 listing for selected binders.
READOUT: EC50 (nM)

| BINDER | MEASUREMENT UNITS | RESULT |
| --- | --- | --- |
| R3A9 (antibody, V domains shown, also called 7115A; mPD1 parental (R3A9)) VH: QVQLVQSGAEVKKPGASVKVSCKASGHTFTSYYIHWVRQAPGQGLEWMGIINPSGGSTSYAQKFQGRVTMTRDTSTSTVYMELSSLRSEDTAVYYCARDRAYGGAGDYWGQGTLVTVSS VL: DIQMTQSPSSLSASVGDRVTITCRASQSVGTWLAWYQQKPGKAPKLLIYSASTLQSGVPSRFSGSGSGTDFTLTISSLQPEDFATYYCQQSYSAPLTFGGGTKVEIK | nM | 0.462 |
| m3A7 (antibody, V domains shown, R3A9 derivative; also called 7115C) VH: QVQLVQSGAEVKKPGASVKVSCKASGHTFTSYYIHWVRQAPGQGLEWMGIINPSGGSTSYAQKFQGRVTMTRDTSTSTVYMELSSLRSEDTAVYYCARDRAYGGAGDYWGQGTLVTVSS VL: DIQMTQSPSSLSASVGDRVTITCRASRSISNWLAWYQQKPGKAPKLLIYAASSLQSGVPSRFSGSGSGTDFTLTISSLQPEDFATYYCQQSYSAPVTFGQGTKVEIK | nM | 0.268 |
| m2A1 (antibody, V domains shown, R3A9 derivative; also called m2AM (apparent misprint)) VH: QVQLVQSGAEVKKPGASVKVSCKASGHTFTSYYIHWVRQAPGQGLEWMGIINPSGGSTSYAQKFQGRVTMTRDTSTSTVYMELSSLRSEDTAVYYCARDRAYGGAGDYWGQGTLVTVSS VL: DIQMTQSPSSLSASVGDRVTITCRASRGISSWLAWYQQKPGKAPKLLIYAASSLQSGVPSRFSGSGSGTDFTLTISSLQPEDFATYYCQQSYSPPWTFGQGTKVEIK | nM | 0.14 |
| m2C1 (antibody, V domains shown, R3A9 derivative; also called m3CM (apparent misprint)) VH: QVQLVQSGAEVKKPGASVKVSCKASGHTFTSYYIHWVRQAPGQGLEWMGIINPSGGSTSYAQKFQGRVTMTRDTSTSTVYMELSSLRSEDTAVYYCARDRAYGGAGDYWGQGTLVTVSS VL: DIQMTQSPSSLSASVGDRVTITCRASRSISSWLAWYQQKPGKAPKLLIYAASSLQSGVPSRFSGSGSGTDFTLTISSLQPEDFATYYCQQSYSIPATFGQGTKVEIK | nM | 0.291 |
| m4D1 (antibody, V domains shown, R3A9 derivative) VH: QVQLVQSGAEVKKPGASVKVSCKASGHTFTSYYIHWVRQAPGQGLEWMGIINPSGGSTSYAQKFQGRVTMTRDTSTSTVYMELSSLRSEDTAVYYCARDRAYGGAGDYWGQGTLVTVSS VL: DIQMTQSPSSLSASVGDRVTITCRASQSISAWLAWYQQKPGKAPKLLIYKASSLESGVPSRFSGSGSGTDFTLTISSLQPEDFATYYCQQSYSPPATFGGGTKVEIK | nM | 1.15 |
